List of ID/g values.
Organism: Mus musculus
experiment-description: Radioactivity uptake in the tumor was expressed as a percentage of the injected radioactive dose per gram of tissue (% ID/g) in B16/F1 Murine Melanoma-Bearing C57 Mice at 4 h
Type: functional, organism-based
measurement-name: ID/g (%)

>  <substance>
Ac-Lys(DOTA)-ReCCEHdFRWCKPV-NH2

>  <output-unit>
%

>  <readout-value>
6.01

$$$$
>  <substance>
DOTA-ReCCEHdFRWCRPV-NH2

>  <output-unit>
%

>  <readout-value>
17.4

$$$$
>  <substance>
DOTA-ReCCEHdFRWCKPV-NH2

>  <output-unit>
%

>  <readout-value>
9.46

$$$$
>  <substance>
DOTA-ReCCEHdFRWCKPV-OH

>  <output-unit>
%

>  <readout-value>
9.27

$$$$
>  <substance>
DOTA-ReCCEHdFRWCKPVD-OH

>  <output-unit>
%

>  <readout-value>
7.32

$$$$
